FYI, the data here is from patent US11028051B2.

- test-target: BRD2-BD1 (Homo sapiens (Human), UniProt P25440)
- Sequence (P25440 74-180): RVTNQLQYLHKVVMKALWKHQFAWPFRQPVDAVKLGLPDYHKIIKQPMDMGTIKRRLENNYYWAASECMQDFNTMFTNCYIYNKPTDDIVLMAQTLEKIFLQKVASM
- method-notes: competitive TR-FRET assay, BET-BD with acetylated peptide ligand
- Assay type: binding
- condition-summary: BRD2-BD1; Table 11 additional modifications; read-out: 2.1 EC50
property-name: EC50 (µM)

# count of solved cases: 2
> print(dat)
                                   compound  property.name  assay.value
1  CC(=O)Nc1cccc(-c2ccc3c(c2)[C@H](Nc2ccc(C#N)c(F)c2)C[C@H](C)N3C(C)=O)c1 [compound 193]           EC50            1
2  COc1cc(N[C@@H]2C[C@H](C)N(C(C)=O)c3ccc(-c4cccc(NC(C)=O)c4)cc32)ccc1C#N [compound 191]           EC50          1.2

(A) CC(=O)N1c2ccc(-c3ccc4[nH]ccc4c3)cc2[C@H](NC(=O)OC(C)C)C[C@@H]1C [compound 81]
(B) CCCCNc1cccc(-c2ccc3c(c2)[C@H](NC(=O)OC(C)C)C[C@H](C)N3C(C)=O)c1 [compound 114]
(C) CC(=O)Nc1cccc(-c2ccc3c(c2)[C@H](NC(=O)CC(C)C)C[C@H](C)N3C(C)=O)c1 [compound 73]
Q: Ordering criterion: EC50; begin with the maximum. List the labels, following the order given in the request.
Ans: C, A, B

###

- test-target: BRD3(2) (Homo sapiens (Human), UniProt Q15059)
- Sequence (Q15059 306-415): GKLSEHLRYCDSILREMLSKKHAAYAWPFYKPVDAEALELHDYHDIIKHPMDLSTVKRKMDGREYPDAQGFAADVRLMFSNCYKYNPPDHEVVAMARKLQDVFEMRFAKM
- method-notes: BROMOscan KD determination
- Assay type: binding
- condition-summary: BROMOscan KD ratio
- Description: DiscoverX® can screen compounds against all ˜42 bromodomains (a service called BROMOscan) and perform follow-up KD determination. This service is considered the industrial standard for bromodomain inhibitor comparisons.
property-name: 3(1)/3(2)

# count of solved cases: 2
> print(dat)
                                        mol                               test.target  property.name  assay.value
1  COC(=O)c1ccc(N[C@@H]2C[C@H](C)N(C(C)=O)c3ccc(-c4cccc(NCCC(F)(F)F)c4)cc32)cc1  BRD3(2) (Homo sapiens (Human), UniProt Q15059)      3(1)/3(2)         16.1
2  CC(=O)N1c2ccc(-c3cccc(-n4cccn4)c3)cc2[C@H](Nc2ccc(Cl)cc2)C[C@@H]1C  BRD3(2) (Homo sapiens (Human), UniProt Q15059)      3(1)/3(2)         29.3

(a) CCCOc1cccc(-c2ccc3c(c2)[C@H](Nc2ccc(C(=O)OC)cc2)C[C@H](C)N3C(C)=O)c1
(b) COC(=O)c1ccc(N[C@@H]2C[C@H](C)N(C(C)=O)c3ccc(-c4cccc(NC(C)=O)c4)cc32)cc1
Q: Looking only at measured 3(1)/3(2), which entry is lower, a or b ? Answer by quoting the chosen item's label.
Ans: b
(b: 1.8, a: 23.0)

###

- test-target: BRD4-BD1 (Homo sapiens (Human), UniProt O60885)
- method-notes: competitive TR-FRET assay, BET-BD with acetylated peptide ligand
- Format: binding
- condition-summary: BRD4-BD1; Table 11 additional modifications; read-out: 4.1 EC50
- Method: Inhibitor potency was determined using a competitive TR-FRET assay as detailed herein, measuring interaction of the respective BET-BD with an acetylated peptide ligand (Table 2).
property-name: EC50 (µM)

# count of solved cases: 4
> print(dat)
                                   compound                               test.target  assay.value
1  CC(=O)Nc1cccc(-c2ccc3c(c2)[C@H](NC(=O)CCc2ccccc2)C[C@H](C)N3C(C)=O)c1 [compound 74]  BRD4-BD1 (Homo sapiens (Human), UniProt O60885)           19
2  CC(=O)N1c2ccc(-c3ccc4c(c3)OCCO4)cc2[C@H](NC(=O)OC(C)C)C[C@@H]1C [compound 77]  BRD4-BD1 (Homo sapiens (Human), UniProt O60885)           15
3  CC(=O)Nc1cccc(-c2ccc3c(c2)[C@H](Nc2ccc4c(c2)OCO4)C[C@H](C)N3C(C)=O)c1 [compound 14]  BRD4-BD1 (Homo sapiens (Human), UniProt O60885)            2
4  CC(=O)N1c2ccc(-c3cccc(-n4cccn4)c3)cc2[C@H](NC(=O)OC(C)C)C[C@@H]1C [compound 78]  BRD4-BD1 (Homo sapiens (Human), UniProt O60885)          6.1

(P) CC(=O)Nc1cccc(-c2ccc3c(c2)[C@H](Nc2cccc(OC(F)(F)F)c2)C[C@H](C)N3C(C)=O)c1 [compound 22]
(Q) CC(=O)Nc1cccc(-c2ccc3c(c2)[C@H](Nc2ccc(C#N)cc2)C[C@H](C)N3C(C)=O)c1 [compound 29]
Q: Which shows the larger EC50 value: P or Q ? Answer by quoting the chosen item's label.
Ans: P

###

- test-target: BRD3-BD1 (Homo sapiens (Human), UniProt Q15059)
- Sequence (Q15059 34-140): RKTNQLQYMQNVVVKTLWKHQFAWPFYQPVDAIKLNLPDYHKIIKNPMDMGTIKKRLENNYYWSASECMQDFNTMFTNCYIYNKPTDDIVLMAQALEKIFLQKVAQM
- method-notes: competitive TR-FRET assay, BET-BD with acetylated peptide ligand
- condition-summary: Table 2, inhibitor potency by TR-FRET
property-name: IC50 (nM)

(P) CC(=O)N1c2ccc(-c3ccoc3)cc2[C@H](NC(=O)OC(C)C)C[C@@H]1C [compound 51]
(Q) CC(=O)N1c2ccc(-c3ccc[nH]3)cc2[C@H](NC(=O)OC(C)C)C[C@@H]1C [compound 54]
Q: Which shows the larger IC50 value: P or Q ? Answer by quoting the chosen item's label.
Ans: Q
(Q: 5600 nM, P: 2300 nM)

###

- test-target: BRD4-BD1 (Homo sapiens (Human), UniProt O60885)
- method-notes: competitive TR-FRET assay, BET-BD with acetylated peptide ligand
- Assay type: binding
- condition-summary: Table 4; read-out: EC50 (μM) BRD4(1)
property-name: EC50 (µM)

> print(dat)
                                   compound  assay.value
1  COc1ccccc1N[C@@H]1C[C@H](C)N(C(C)=O)c2ccc(-c3cccc(NC(C)=O)c3)cc21 [compound 40]            6

(1) CC(=O)Nc1cccc(-c2ccc3c(c2)[C@H](Nc2ccccc2OC(F)(F)F)C[C@H](C)N3C(C)=O)c1 [compound 19]
(2) CC(=O)Nc1cccc(-c2ccc3c(c2)[C@H](Nc2ccc(F)cc2)C[C@H](C)N3C(C)=O)c1 [compound 39]
(3) CC(=O)Nc1cccc(-c2ccc3c(c2)[C@H](Nc2ccc(Cl)cc2)C[C@H](C)N3C(C)=O)c1 [compound 10]
(4) COC(=O)c1ccc(N[C@@H]2C[C@H](C)N(C(C)=O)c3ccc(-c4cccc(NC(C)=O)c4)cc32)cc1 [compound 4]
Q: Hey, quick one: sort these by EC50, low to high? List the labels, following the order given in the request.
Ans: 4, 3, 2, 1

###

- test-target: BRD2-BD1 (Homo sapiens (Human), UniProt P25440)
- method-notes: competitive TR-FRET assay, BET-BD with acetylated peptide ligand
- Format: binding
- condition-summary: Table 4; read-out: EC50 (μM) BRD2(1)
property-name: EC50 (µM)

> print(dat)
                                   compound                               test.target  assay.value
1  CC(=O)Nc1cccc(-c2ccc3c(c2)[C@H](Nc2ccccc2C(F)(F)F)C[C@H](C)N3C(C)=O)c1 [compound 41]  BRD2-BD1 (Homo sapiens (Human), UniProt P25440)           70
2  CC(=O)N1c2ccc(-c3ccc(C(=O)O)cc3)cc2[C@H](Nc2ccc(Cl)cc2)C[C@@H]1C [GSK-726, IBET-726, reference compound]  BRD2-BD1 (Homo sapiens (Human), UniProt P25440)            1

(a) CC(=O)Nc1cccc(-c2ccc3c(c2)[C@H](Nc2ccc(F)cc2)C[C@H](C)N3C(C)=O)c1 [compound 39]
(b) CC(=O)Nc1cccc(-c2ccc3c(c2)[C@H](Nc2ccc(Cl)cc2)C[C@H](C)N3C(C)=O)c1 [compound 10]
Q: Which shows the larger EC50 value: a or b ? Answer by quoting the chosen item's label.
Ans: a
(a: 5.6 µM, b: 2.6 µM)

###

- test-target: UniProt:Q15059
- method-notes: BROMOscan KD determination
- Type: binding
- condition-summary: BROMOscan KD ratio
- Excerpt: DiscoverX® can screen compounds against all ˜42 bromodomains (a service called BROMOscan) and perform follow-up KD determination. This service is considered the industrial standard for bromodomain inhibitor comparisons.
property-name: 3(1)/3(2)

(I) CC(=O)Nc1cccc(-c2ccc3c(c2)[C@H](Nc2ccccc2C(F)(F)F)C[C@H](C)N3C(C)=O)c1 [compound 41]
(II) CC(=O)Nc1cccc(-c2ccc3c(c2)[C@H](Nc2ccccc2OC(F)(F)F)C[C@H](C)N3C(C)=O)c1 [compound 19]
(III) CC(=O)Nc1cccc(-c2ccc3c(c2)[C@H](Nc2ccc4ncccc4c2)C[C@H](C)N3C(C)=O)c1 [compound 13]
(IV) COC(=O)c1ccc(N[C@@H]2C[C@H](C)N(C(C)=O)c3ccc(-c4ccnn4C)cc32)cc1 [compound 49]
Q: List the 4 entries from lowest 3(1)/3(2) to highest 3(1)/3(2) value. List the labels, following the order given in the request.
Ans: IV, III, II, I
